All values here come from patent US20120172295A1.

Kindly supply the reported % Potency Relative to Native values for the records listed here.
# Test target: GLP-1 receptor (UniProt P43220 24-463, limits assumed)
# Experiment description: cell-based or functional assay
Positions of bridges follow the written chain, without caps; N, C: chain ends. Non-standard residues stand in square brackets, D forms with d. No end group written: not given here. PEG = not defined here; Aib = CC(C)(N)C(=O)O
I only need the number, in %, no unit after it.

Prompt: Find the recorded % Potency Relative to Native belonging to H[Aib]QGTFTSDYSKYLDERRAKDFVC(PEG)WLMNT-NH2 (lactam 16-20; reading uncertain) [E16, K20 AIB2, Cys24 Lactam (SEQ ID NO: 517), parent w/PEG] and report it.
Response: 31

Prompt: Which % Potency Relative to Native value belongs to H[Aib]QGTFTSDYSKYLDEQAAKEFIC(PEG)WLMNGGPSSGAPPPS-NH2 (reading uncertain) [Chimera AIB2, Gly29,30 Cys24 Cex (SEQ ID NO: 490), parent w/PEG] ?
Response: 95.4

Prompt: Param item = H[Aib]QGTFTSDYSKYLDERAAKDFVC(PEG)WLMNT-NH2 (reading uncertain) [E16, K20AIB2, A18 Cys24 (SEQ ID NO: 492), parent w/PEG] ; retrieve measured % Potency Relative to Native.
Response: 73.5

Prompt: Please look up its % Potency Relative to Native: H[Aib]QGTFTSDYSKYLDEQAAKEFIAWLMNGGPSSGAPPPSC(PEG)-NH2 (reading uncertain) [Chimera AIB2, Gly29,30 Cys40 Cex (SEQ ID NO: 488), parent w/PEG]
Response: 68.8

Prompt: Would you mind telling me what % Potency Relative to Native value was observed for H[Aib]QGTFTSDYSKYLDEQAAKEFIAWLMNGGPSSGAPPPSC(PEG)-NH2 (lactam 16-20; reading uncertain) [Chimera AIB2, Gly29,30 Cys40 Cex Lactam (SEQ ID NO: 489), parent w/PEG] ?
Response: 63.6
